A collection of sequences and their measured Number (%) Positive In ASD
Tested on: maternal autoantibodies
Assay Explanation: validation peptide microarray incubated with maternal plasma samples (ASD vs TD mothers)
Type: binding, human
Assay Setup: plasma of mothers of children with ASD, n = 46
All answers are understood in %, so give the number only.

# annotated cases, reported Number (%) Positive In ASD shown
>  <Sequence>
KTISAKTHNSSLEYN [SEQ ID NO: 54]

>  <Number (%) Positive In ASD>
2

$$$$
>  <Sequence>
VDVIEDKLKGEMMDL [SEQ ID NO: 3]

>  <Number (%) Positive In ASD>
15

$$$$
>  <Sequence>
PAAPPAAPALSAADT [SEQ ID NO: 28]

>  <Number (%) Positive In ASD>
41

$$$$

Number (%) Positive In ASD for VVPEPGSSLLTSFEK [SEQ ID NO: 36] ?
4

----------
Test system: maternal autoantibodies
Assay Explanation: validation peptide microarray incubated with maternal plasma samples (ASD vs TD mothers)
Type: binding, human
Assay Setup: plasma of mothers of children with ASD, n = 46
Class key for Number (%) Positive In ASD values: low end = under 10%, middle = from 10% up to 20%, high end = 20% and over

Solved entries:
>  <Sequence>
TPKIVADKDYSVTAN [SEQ ID NO: 11]

>  <Group Label>
low end

$$$$
>  <Sequence>
MAERKQSGKAAEDEE [SEQ ID NO: 45]

>  <Group Label>
high end

$$$$

Band assignment needed for MDLNDTFPEYKETIE (MDLNDTFPEYKETTE) [SEQ ID NO: 27] please.
middle

Category lookup for the sequence IAPVAEEEATVPNNKIT [SEQ ID NO: 66]
low end

For the record ETVEFDVVEGEKGAE [SEQ ID NO: 32] , report the class its Number (%) Positive In ASD corresponds to.
middle

----------
Entries and their measured Number (%) Positive In ASD follow.
Test system: maternal autoantibodies
Assay Explanation: validation peptide microarray incubated with maternal plasma samples (ASD vs TD mothers)
Type: binding, human
Assay Setup: plasma of mothers of children with ASD, n = 46
The answer is to be given in %; state only the numeric part.

>  <Sequence>
PVAEEEATVPNNKIT [SEQ ID NO: 9]

>  <Number (%) Positive In ASD>
7

$$$$

Report Number (%) Positive In ASD for DCIIIVVSNPVDILT [SEQ ID NO: 12] please.
11

May I ask what Number (%) Positive In ASD has been recorded for LQTPKIVADKDYSVTAN [SEQ ID NO: 71] ?
2

Fill blank: measured Number (%) Positive In ASD of the sequence VPRGLYDGPVCEVSV [SEQ ID NO: 60] is ____.
17

Give its Number (%) Positive In ASD value. Item: VDLGSMDEEEEIATP [SEQ ID NO: 21]
13

Which Number (%) Positive In ASD is listed for HNSSLEYNIFEGMEC [SEQ ID NO: 55] ?
35

I have this sequence here, VDITSWYDGVREELE [SEQ ID NO: 38] , and I need its recorded Number (%) Positive In ASD.
26

I would be grateful if you could share the reported Number (%) Positive In ASD for VLLGVDLGSMDEEEE [SEQ ID NO: 20] .
30
